assayMethodText: Half life in dog at 1 mg/kg, iv and 2 mg/kg, po by LC/MS/MS analysis
Format: ADME, organism-based, Canis lupus familiaris
experimentalSetup: in vivo

{"molecule": "FC(F)(F)Oc1ccc(CN2CCC3(CC2)OC(c2cc(Cl)ccn2)c2ccccc23)cc1 (stereo unspecified)", "half-life, h": 14}

---

assayMethodText: Clearance in dog at 1 mg/kg, iv and 2 mg/kg, po by LC/MS/MS analysis
Type: ADME, organism-based, Canis lupus familiaris
experimentalSetup: in vivo
reportedEndpoint: clearance (L/h/kg)

{"compound": "FC(F)(F)Oc1ccc(CN2CCC3(CC2)OC(c2cc(Cl)ccn2)c2ccccc23)cc1 (stereo unspecified)", "reportedEndpoint": "clearance", "scaleUnit": "L/h/kg", "endpointValue": 0.354}

The measured values listed here are drawn from ChEMBL document CHEMBL1949630.
